# ASSAY_DETAILS: Stability in Simulated Gastric Fluid (SGF)
# Assay type: in vitro ADME
# Parameters: key: % parent compound remaining relative to 0-minute sample
# SETUP_CONDITIONS: % remaining at 1 h in simulated gastric fluid
SGF for assorted compounds
Expressed in % remaining, but write only the number.

Observe how each entry below is paired with its result.
- SMILES: "CC(C)OCCn1c(=S)[nH]c(=O)c2c1ccn2COC(=O)CCNC(=O)[C@@H]1CCCN1C(N)=O.O=C(O)C(F)(F)F"
  UNIT_ABBREV: "% remaining"
  SGF: 99
- SMILES: "CC[C@H](C)[C@H](N)C(=O)NCCC(=O)OCn1ccc2c1c(=O)[nH]c(=S)n2CCOC(C)C.O=C(O)C(F)(F)F"
  UNIT_ABBREV: "% remaining"
  SGF: 92
- SMILES: "CC(C)OCCn1c(=S)[nH]c(=O)c2c1ccn2COC(=O)CCCCNC(=O)[C@@H](N)[C@@H](C)O.O=C(O)C(F)(F)F"
  UNIT_ABBREV: "% remaining"
  SGF: 91
- SMILES: "CC(C)OCCn1c(SCOC(=O)OCCOCCNC(=O)OC(C)(C)C)nc(=O)c2c1ccn2COC(=O)OCCOCCNC(=O)OC(C)(C)C"
  UNIT_ABBREV: "% remaining"
  SGF: 69
- SMILES: "CC(C)OCCn1c(=S)[nH]c(=O)c2c1ccn2COC(=O)CCCCNC(=O)[C@@H](N)CO.O=C(O)C(F)(F)F"
  UNIT_ABBREV: "% remaining"
  SGF: 92
- SMILES: "CC(C)OCCn1c(=S)[nH]c(=O)c2c1ccn2COC(=O)CCNC(=O)[C@H](Cc1ccccc1)NC(=O)OCC1c2ccccc2-c2ccccc21.O=C(O)C(F)(F)F"
  UNIT_ABBREV: "% remaining"
  SGF: 93
- SMILES: "CSCC[C@H](NC(=O)OC(C)(C)C)C(=O)NCCCCC(=O)OCn1ccc2c1c(=O)[nH]c(=S)n2CCOC(C)C"
  UNIT_ABBREV: "% remaining"
  SGF: 99
- SMILES: "CC(C)OCCn1c(=S)[nH]c(=O)c2c1ccn2COC(=O)CCNC(=O)[C@@H](N)Cc1c[nH]c2ccccc12.O=C(O)C(F)(F)F"
  UNIT_ABBREV: "% remaining"
  SGF: 95
- SMILES: "CC(C)OCCn1c(=S)[nH]c(=O)c2c1ccn2COC(=O)C1CN(C(=O)OC(C)(C)C)C1"
  UNIT_ABBREV: "% remaining"
  SGF: 80
- SMILES: "CSCC[C@H](NC(=O)OCC1c2ccccc2-c2ccccc21)C(=O)NCCCCC(=O)OCn1ccc2c1c(=O)[nH]c(=S)n2CCOC(C)C.O=C(O)C(F)(F)F"
  UNIT_ABBREV: "% remaining"
  SGF: 80

Give the measured SGF of CC(C)OCCn1c(=S)[nH]c(=O)c2c1ccn2COC(=O)CCNC(=O)[C@@H]1CCC(=O)N1C(=O)OCc1ccccc1.O=C(O)C(F)(F)F .
99

Give the measured SGF of CC(C)OCCn1c(=S)[nH]c(=O)c2c1ccn2COC(=O)CCCCNC(=O)[C@@H]1CCCN1C(N)=O.O=C(O)C(F)(F)F .
84

----------
# ASSAY_DETAILS: Stability in Simulated Gastric Fluid (SGF)
# Assay type: in vitro ADME
# Design: key: % parent compound remaining relative to 0-minute sample
# SETUP_CONDITIONS: % remaining at 1 h in simulated gastric fluid
SGF for assorted compounds
Please report the result as a number followed by the unit.

- COMPOUND: "CC(C)OCCn1c(=S)[nH]c(=O)c2c1ccn2COC(=O)CCNC(=O)[C@H](Cc1ccc(O)cc1)NC(=O)OC(C)(C)C.O=C(O)C(F)(F)F [Example 46]"
  READOUT_VALUE: "98% remaining"
- COMPOUND: "CC(C)OCCn1c(=S)[nH]c(=O)c2c1ccn2COC(=O)[C@@H]1CCN(C(=O)OC(C)(C)C)C1 [Example 129]"
  READOUT_VALUE: "84% remaining"

Give the measured SGF of CSCC[C@H](N)C(=O)NCCC(=O)OCn1ccc2c1c(=O)[nH]c(=S)n2CCOC(C)C.O=C(O)C(F)(F)F [Example 32] .
97% remaining
